target: Adenosine receptor A1 (Homo sapiens); test: Displacement of [3H]DPCPX from human recombinant A1 receptor expressed in CHOA1 cell membranes at 1 uM incubated for 60 mins by radioligand binding competition assay relative to control
test.readout: inhibition (%)
Give bare numbers, in %.

| compound | inhibition / % |
| --- | --- |
| CCOC(=O)C1=C(C(F)(F)F)Nc2nc3ccccc3n2C1c1ccoc1 (racemic) | 9 |
| CC1=C(C(=O)OC(C)C)C(c2ccoc2)n2c(nc3ccccc32)N1 (centres undefined) | 12 |
| CC1=C(C(=O)OCC(F)(F)F)C(c2ccsc2)n2c(nc3ccccc32)N1 (racemic) | 7 |

Return reported inhibition values for all items listed beneath this line.
1. CC1=C(C(=O)OC(C(F)(F)F)C(F)(F)F)C(c2ccsc2)NC(=O)N1 (racemic)
2. CC1=C(C(=O)OCC(F)(F)F)[C@H](c2ccco2)n2c(nc3ccccc32)N1
3. CCOC(=O)C1=C(C(F)(F)F)Nc2nc3ccccc3n2C1c1cccs1 (racemic)
4. CCOC(=O)C1=C(C(F)(F)F)NC(=O)NC1c1cccs1 (racemic)
5. CCOC(=O)C1=C(C(F)(F)F)NC(=O)NC1c1ccoc1 (racemic)
6. CC1=C(C(=O)OC(C(F)(F)F)C(F)(F)F)C(c2ccsc2)n2c(nc3ccccc32)N1 (racemic)

1: 17; 2: 12; 3: 7; 4: 28; 5: 37; 6: 3

* * *

target: Adenosine receptor A2b (Homo sapiens, UniProt P29275); test: Displacement of [3H]DPCPX from human recombinant A2B receptor expressed in human HEK293 cell membranes incubated for 30 mins by radioligand binding competition assay
Sequence (P29275 whole entry): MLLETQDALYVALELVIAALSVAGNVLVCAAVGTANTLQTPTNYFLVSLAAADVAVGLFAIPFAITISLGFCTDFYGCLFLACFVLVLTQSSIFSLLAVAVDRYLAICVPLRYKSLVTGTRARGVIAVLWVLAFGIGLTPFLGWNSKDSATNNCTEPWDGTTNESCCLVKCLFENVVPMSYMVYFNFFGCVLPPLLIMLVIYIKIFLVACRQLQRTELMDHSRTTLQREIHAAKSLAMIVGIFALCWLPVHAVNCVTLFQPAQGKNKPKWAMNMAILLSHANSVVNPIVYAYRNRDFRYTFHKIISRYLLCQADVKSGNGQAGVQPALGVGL
Record form. Attribute: pKi. Fill in for each entry.
Answers are plain numbers, as −log10 of the molar value.

| compound | study.system | test.readout | recorded.result |
| --- | --- | --- | --- |
| CCOC(=O)C1=C(C(F)(F)F)Nc2nc3ccccc3n2C1c1ccoc1 (racemic) | Adenosine receptor A2b (Homo sapiens, UniProt P29275) | pKi | 7.43 |
| CC1=C(C(=O)OC(C)C(F)(F)F)C(c2ccco2)n2c(nc3ccccc32)N1 (racemic) | Adenosine receptor A2b (Homo sapiens, UniProt P29275) | pKi | 7.53 |
| CC1=C(C(=O)OC(C)C(F)(F)F)C(c2ccoc2)n2c(nc3ccccc32)N1 (racemic) | Adenosine receptor A2b (Homo sapiens, UniProt P29275) | pKi | 7.28 |
| CC1=C(C(=O)O[C@H](C)C(F)(F)F)[C@@H](c2ccco2)n2c(nc3ccccc32)N1 | Adenosine receptor A2b (Homo sapiens, UniProt P29275) | pKi | 8.16 |

Next item in the queue.
Determine from records and report pKi for CC1=C(C(=O)OCC(F)(F)F)C(c2ccco2)NC(=O)N1 (racemic)
6.80

* * *

Target: Adenosine receptor A3 (Homo sapiens)
Sequence (whole entry): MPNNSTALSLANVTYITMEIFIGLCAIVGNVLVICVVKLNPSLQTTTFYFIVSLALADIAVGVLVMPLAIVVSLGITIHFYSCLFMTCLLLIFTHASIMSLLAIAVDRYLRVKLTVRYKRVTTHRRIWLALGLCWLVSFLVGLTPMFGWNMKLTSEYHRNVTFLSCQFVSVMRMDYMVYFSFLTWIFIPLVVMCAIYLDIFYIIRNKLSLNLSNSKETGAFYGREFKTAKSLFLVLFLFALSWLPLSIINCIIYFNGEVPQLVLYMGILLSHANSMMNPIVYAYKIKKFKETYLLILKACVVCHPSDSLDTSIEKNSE
Assay: Displacement of [3H]NECA from human A3 receptor expressed in human HeLa cell membranes at 1 uM incubated for 180 mins by radioligand binding competition assay relative to control
Lab note: compare inhibition against 2%. Equal or greater, write fulfilled. Smaller, write not fulfilled.

| molecule | class.name |
| --- | --- |
| CCOC(=O)C1=C(C)Nc2nc3ccccc3n2C1c1ccco1 (centres undefined) | not fulfilled |
| CC(C)OC(=O)C1=C(C(F)(F)F)Nc2nc3ccccc3n2C1c1ccoc1 (racemic) | fulfilled |
| CC1=C(C(=O)OC(C)C(F)(F)F)C(c2cccs2)n2c(nc3ccccc32)N1 (racemic) | fulfilled |
| CC1=C(C(=O)OC(C(F)(F)F)C(F)(F)F)C(c2ccoc2)n2c(nc3ccccc32)N1 (racemic) | fulfilled |
| CC(C)OC(=O)C1=C(C(F)(F)F)Nc2nc3ccccc3n2C1c1ccco1 (racemic) | fulfilled |

# check: inhibition of CCOC(=O)C1=C(C(F)(F)F)NC(=O)NC1c1ccoc1 (racemic) is greater than or equal to 2%
not fulfilled
